# study_target: 5-hydroxytryptamine receptor 4 (Cavia porcellus)
# protocol_details: 5-hydroxytryptamine 4 receptor agonist activity in the guinea pig ileum assay
# Format: functional, tissue-based
Outcome label depends on pD2 relative to 7: at/above gives condition met, below gives condition not met.

                                   compound                              study_target  assigned_category
0  COc1cc(N)c(Cl)cc1C(=O)N[C@H]1CCN(CCCOc2ccc(F)cc2)C[C@H]1OC  5-hydroxytryptamine receptor 4 (Cavia porcellus)  condition not met
1           N=C(N)N/N=C/c1c[nH]c2ccc(O)cc12  5-hydroxytryptamine receptor 4 (Cavia porcellus)      condition met
2  CCN(CC)CCNC(=O)c1cc(Cl)c(N)cc1OC [METOCLOPRAMIDE]  5-hydroxytryptamine receptor 4 (Cavia porcellus)  condition not met
3                    NCCc1c[nH]c2ccc(O)cc12  5-hydroxytryptamine receptor 4 (Cavia porcellus)      condition met

----------
Consider the following molecules and their measured Potency relative to serotonin readings.
# study_target: 5-hydroxytryptamine receptor 4 (Cavia porcellus)
# protocol_details: Compound was evaluated for the relative potency with respect to serotonin against 5-hydroxytryptamine 4 receptor
# Assay type: functional
recorded_endpoint: Potency relative to serotonin

>>> print(df.to_string())
                                   molecule              recorded_endpoint  observed_measurement
0   COc1cc(N)c(Cl)cc1C(=O)N[C@H]1CN2CCC1CC2  Potency relative to serotonin                   1.9
1  COc1cc(N)c(Cl)cc1C(=O)N[C@H]1CCN(CCCOc2ccc(F)cc2)C[C@H]1OC  Potency relative to serotonin                   0.7
2                    NCCc1c[nH]c2ccc(O)cc12  Potency relative to serotonin                     1
3           N=C(N)N/N=C/c1c[nH]c2ccc(O)cc12  Potency relative to serotonin                   1.5
4  CCN(CC)CCNC(=O)c1cc(Cl)c(N)cc1OC [METOCLOPRAMIDE]  Potency relative to serotonin                     1

----------
Consider the following molecules and their measured pKD readings.
# study_target: D(2) dopamine receptor (Bos taurus)
# protocol_details: Binding affinity was evaluated by Dopamine receptor D2 binding in the calf striatum by displacing spiperone
# Type: tissue-based
recorded_endpoint: pKD

                                   molecule  qualifier  observed_measurement
0   COc1cc(N)c(Cl)cc1C(=O)N[C@H]1CN2CCC1CC2          <                     5
1  COc1cc(N)c(Cl)cc1C(=O)N[C@H]1CCN(CCCOc2ccc(F)cc2)C[C@H]1OC          =                   6.5
2           N=C(N)N/N=C/c1c[nH]c2ccc(O)cc12          <                     5
3  CCN(CC)CCNC(=O)c1cc(Cl)c(N)cc1OC [METOCLOPRAMIDE]          =                   7.1
